tested on: aspirin induced gastric ulcer; experiment: Aspirin ulcer in rats (pylorus ligated); type: in vivo, Sprague-Dawley rats, male; conditions: 10 mg/kg, oral, an hour before pylorus ligation and aspirin (100 mg/kg)
The label is class 1 for Inhibition (%) below 20% and class 0 for Inhibition (%) equal to or exceeding 20%.

1) c1ccc2c(c1)Sc1ccccc1N2CCC12CCCN1CCC2 | class 0
2) C[Si](C)(C)c1cccc2c1N(CC13CCCN1CCC3)c1ccccc1S2 | class 1
3) CN/C(=N/CCSCc1nc[nH]c1C)NC#N [Cimetidine, reference compound] | class 1
4) c1ccc2c(c1)Sc1ccccc1N2CC12CCCN1CCC2 | class 0
5) CN1CCN(CC(=O)N2c3ccccc3C(=O)Nc3cccnc32)CC1 [Pirenzepine, reference compound] | class 0

Dear colleague, could you confirm whether Inhibition (%) of `O=C1Nc2cccnc2N(C(=O)C23CCCN2CCC3)c2ccccc21` falls below 20%? Thanks.
class 0
